Measured LogP, listed per entry for reference.
Experiment: logP by HPLC on reversed phase columns (EEC directive 79/831 Annex V.A8)
Format: physicochemical
Details: method [a]: LC-MS at pH 2.7, 0.1% formic acid in water / acetonitrile, gradient 10% to 95% acetonitrile
observable: LogP

>>> print(df.to_string())
                                   molecule  reported
0  CNCC(=O)C(C#N)=C(NC(C)C(C)C)c1ccccc1Cl (stereo not drawn)  1.89^[a]
1  CCCC(=NC#N)C(C#N)=C(N[C@@H](C)C(C)C)c1ccccc1Cl  3.85^[a]
2  COCCC(=O)C(C#N)=C(NC(C)C(C)C)c1ccccc1Cl (stereo not drawn)  3.55^[a]
3  CC(C)C(C)NC(=C(C#N)C(=O)C1CC1)c1ccccc1Br (stereo not drawn)  4.21^[a]
4  CC(C)C(C)NC(=C(C#N)C(=O)C1CCCC1)c1ccccc1Br (stereo not drawn)  5.05^[a]
5  CCCCC(=O)C(C#N)=C(NC(C)C(C)C)c1ccccc1Br (stereo not drawn)  4.85^[a]
6  C[C@H](NC(=C(C#N)C(=O)C1CCCCO1)c1ccccc1Br)C1CC1 (stereo partly drawn)  3.50^[a]
7  CC(NC(=C(C#N)C(=O)CC1CC1)c1ccccc1Br)C1CC1 (stereo not drawn)  4.06^[a]
8  CC(C)C(C)NC(=C(C#N)C(=O)C1CCOC1)c1ccccc1Br (mixture of isomers)  3.60^[a]

---

Measured LogP, listed per entry for reference.
Assay: logP by HPLC on reversed phase columns (EEC directive 79/831 Annex V.A8)
Type: physicochemical
Settings: method [a]: LC-MS at pH 2.7, 0.1% formic acid in water / acetonitrile, gradient 10% to 95% acetonitrile
observable: LogP

>>> print(df.to_string())
                                   molecule  observable  reported
0  CCCCC(=O)C(C#N)=C(NC(C)C(C)C)c1ccccc1Cl (stereo not drawn)        LogP  4.81^[a]
1  CC(C)CC(=O)C(C#N)=C(N[C@@H](C)C(C)C)c1ccccc1Cl        LogP  4.73^[a]
2  COCC(=O)C(C#N)=C(NC(C)C(C)C)c1ccccc1Cl (stereo not drawn)        LogP  3.21^[a]
3  CC(C)C(C)NC(=C(C#N)C(=O)CC1CC1)c1ccccc1Cl (stereo not drawn)        LogP  4.27^[a]
4  CCCCC(=O)C(C#N)=C(NC(C)C1CC1)c1ccccc1Br (stereo not drawn)        LogP  4.40^[a]
5  CCCC(=O)C(C#N)=C(N[C@@H](C)C1CC1)c1ccccc1Br        LogP  4.10^[a]
6  CC(C)C(C)NC(=C(C#N)C(=O)CCl)c1ccccc1Cl (stereo not drawn)        LogP  3.78^[a]
7  CC(C)C(C)NC(=C(C#N)C(=O)CC1CC1)c1ccccc1Br (stereo not drawn)        LogP  4.34^[a]
8  CC(NC(=C(C#N)C(=O)c1ccco1)c1ccccc1Br)C1CC1 (stereo not drawn)        LogP  3.50^[a]

---

Measured LogP, listed per entry for reference.
Experiment: logP by HPLC on reversed phase columns (EEC directive 79/831 Annex V.A8)
Format: physicochemical
Conditions: method [a]: LC-MS at pH 2.7, 0.1% formic acid in water / acetonitrile, gradient 10% to 95% acetonitrile
observable: LogP

>>> df
                                   compound  reported
0  CCC(=O)C(C#N)=C(NC(C)C(C)C)c1ccccc1Br (stereo not shown) [Example 9]  4.04^[a]
1  CC(NC(=C(C#N)C(=O)C1CCCC1)c1ccccc1Br)C1CC1 (stereo not shown) [Example 29]  4.60^[a]
2  CC(NC(=C(C#N)C(=O)C1CC1)c1ccccc1Br)C1CC1 (stereo not shown) [Example 20]  3.90^[a]
3  CC(NC(=C(C#N)C(=O)Cc1ccccc1)c1ccccc1Br)C1CC1 (stereo not shown) [Example 25]  4.20^[a]
4  COCCC(=O)C(C#N)=C(NC(C)C1CC1)c1ccccc1Br (stereo not shown) [Example 3]  3.20^[a]
5  CCCC(=O)C(C#N)=C(NC(C)C(C)C)c1ccccc1Br (stereo not shown) [Example 17]  4.40^[a]
6  CC(NC(=C(C#N)C(=O)C1CCOC1)c1ccccc1Br)C1CC1 (mixture of isomers) [Example 30]  3.25^[a]

---

Measured chromatographic logP, listed per entry for reference.
Test: logP by HPLC on reversed phase columns (EEC directive 79/831 Annex V.A8)
Type: physicochemical
Details: reversed phase HPLC columns, pH 2.7, value in preparation example text; method not given
Procedure: Measurement of logP values was performed according EEC directive 79/831 Annex V.A8 by HPLC (High Performance Liquid Chromatography) on reversed phase columns with the following methods: ^[a] measurement of LC-MS was done at pH 2.7 with 0.1% formic acid in water and with acetonitrile (contains 0.1% formic acid) as eluent with a linear gradient from 10% acetonitrile to 95% acetonitrile. […]
observable: chromatographic logP

>>> print(df.to_string())
                                   compound            observable  reported
0                      N#CC=C(Cl)c1ccccc1Cl  chromatographic logP      3.02
1  CCCC(=NOC)C(C#N)=C(NC(C)C(C)C)c1ccccc1Cl (stereo not shown)  chromatographic logP      5.34
2  CCCC(=O)C(C#N)=C(NC(C)C(C)C)c1ccccc1Cl (stereo not shown)  chromatographic logP      4.44
3  CC(C)C(C)NC(=CC#N)c1ccccc1Cl (stereo not shown)  chromatographic logP      3.27

---

Experiment: logP by HPLC on reversed phase columns (EEC directive 79/831 Annex V.A8)
Format: physicochemical
Conditions: method [a]: LC-MS at pH 2.7, 0.1% formic acid in water / acetonitrile, gradient 10% to 95% acetonitrile
observable: LogP

>>> print(df.to_string())
                                   compound  reported
0  CC(C)C(C)NC(=C(C#N)C(=O)C1CC1)c1ccccc1Cl (stereo not drawn)  4.18^[a]
1  COCC(=O)C(C#N)=C(NC(C)C1CC1)c1ccccc1Br (stereo not drawn)  3.00^[a]
2  CCC(=O)C(C#N)=C(NC(C)C1CC1)c1ccccc1Br (stereo not drawn)  3.60^[a]
3  CC(C)C(C)NC(=C(C#N)C(=O)c1ccco1)c1ccccc1Cl (stereo not drawn)  3.87^[a]
4  COCC(=O)C(C#N)=C(NC(C)C(C)C)c1ccccc1Br (stereo not drawn)  3.27^[a]
5  CC(NC(=C(C#N)C(=O)C1CCC1)c1ccccc1Br)C1CC1 (stereo not drawn)  4.20^[a]
6  CC(C)C(C)NC(=C(C#N)C(=O)C1CCC1)c1ccccc1Br (stereo not drawn)  4.64^[a]
7  CC(C)C(C)NC(=C(C#N)C(=O)C1CCCCO1)c1ccccc1Br (mixture of isomers)  3.80^[a]
8  CC(NC(=C(C#N)C(=O)CCl)c1ccccc1Br)C1CC1 (stereo not drawn)  3.50^[a]

---

Test: logP by HPLC on reversed phase columns (EEC directive 79/831 Annex V.A8)
Format: physicochemical
Settings: reversed phase HPLC columns, pH 2.7, method [a]: LC-MS at pH 2.7, 0.1% formic acid in water / acetonitrile, gradient 10% to 95% acetonitrile
observable: chromatographic logP

                                   molecule  reported
0  CCCC(=O)C(C#N)=C(NC(C)C(C)C)c1ccccc1Cl (centres unmarked)      4.44
1  CCCC(=NOC)C(C#N)=C(NC(C)C(C)C)c1ccccc1Cl (centres unmarked)      5.34
